The measurements presented in this section are drawn from ChEMBL document CHEMBL1138069.

System name: UniProtKB A5A4K8
Assay protocol: Inhibition of [125]I-motilin binding to rabbit motilin receptor
pIC50: −log10 of the molar value.
Recorded pIC50 values for a group of molecules are listed next.

>  <Molecule>
O=C(Nc1ccccc1)N(CC1CCCC(N(Cc2ccccc2)C(=O)CCc2ccccc2)C1)c1cccc(OCCN2CCOCC2)c1 (configuration not stated)

>  <pIC50>
6.14

$$$$
>  <Molecule>
O=C(Nc1ccccc1)N(CC1=C[C@@](Cc2cccc(Cl)c2)(NC(=O)C(Cl)(Cl)Cl)CC1)c1cccc(OCCN2CCOCC2)c1

>  <pIC50>
8.00

$$$$
>  <Molecule>
O=C(Nc1ccccc1)N(CC1=C[C@@](Cc2ccccc2)(NC(=O)C(Cl)(Cl)Cl)CC1)c1cccc(OCCN2CCOCC2)c1

>  <pIC50>
7.70

$$$$
>  <Molecule>
O=C(c1ccc(F)cc1)N(CC1CCCC(N(Cc2ccccc2)C(=O)C(Cl)(Cl)Cl)C1)c1cccc(OCCN2CCCC2)c1 (racemic)

>  <pIC50>
7.24

$$$$
>  <Molecule>
O=C(Nc1ccccc1)N(CC1CCCC(N(Cc2ccccc2)C(=O)c2ccco2)C1)c1cccc(OCCN2CCOCC2)c1 (racemic)

>  <pIC50>
6.18

$$$$
>  <Molecule>
O=C(Nc1ccccc1)N(CC1CCCC(N(Cc2ccccc2)C(=O)c2cccc([N+](=O)[O-])c2)C1)c1cccc(OCCN2CCOCC2)c1 (racemic)

>  <pIC50>
5.94

$$$$
>  <Molecule>
O=C(c1ccc(F)cc1)N(CC1CCCC(N(Cc2cccc(Cl)c2)C(=O)C(Cl)(Cl)Cl)C1)c1cccc(OCCN2CCCCC2)c1 (racemic)

>  <pIC50>
7.20

$$$$

----------
System name: Motilin receptor (Oryctolagus cuniculus)
Sequence (A5A4K8 whole entry): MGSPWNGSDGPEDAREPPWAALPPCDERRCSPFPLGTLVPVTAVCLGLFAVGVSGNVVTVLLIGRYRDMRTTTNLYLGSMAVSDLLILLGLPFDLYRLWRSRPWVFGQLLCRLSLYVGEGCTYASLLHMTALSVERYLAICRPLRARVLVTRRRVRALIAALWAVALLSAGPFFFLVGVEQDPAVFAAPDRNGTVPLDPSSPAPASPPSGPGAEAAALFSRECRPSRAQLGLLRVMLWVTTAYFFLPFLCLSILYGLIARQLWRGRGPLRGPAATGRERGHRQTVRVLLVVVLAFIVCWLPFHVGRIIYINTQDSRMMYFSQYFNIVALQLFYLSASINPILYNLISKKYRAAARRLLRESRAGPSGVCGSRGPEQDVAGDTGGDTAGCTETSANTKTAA
Assay protocol: Inhibition of [125]I-motilin binding to rabbit motilin receptor at 1 uM
Recorded inhibition values for a group of compounds are listed next.

>  <Compound>
COc1cccc(C(=O)N(Cc2cccc(Cl)c2)C2CCC(CN(C(=O)Nc3ccccc3)c3cccc(OCCN4CCOCC4)c3)CC2)c1 (racemic)

>  <inhibition (%)>
6

$$$$
>  <Compound>
O=C(Nc1ccccc1)N(CC1CCCC(N(Cc2cccc(C(F)(F)F)c2)C(=O)C(Cl)(Cl)Cl)C1)c1cccc(OCCN2CCOCC2)c1 (racemic)

>  <inhibition (%)>
58

$$$$
>  <Compound>
CC(C)(C)C(=O)N(Cc1ccccc1)C1CCCC(CN(C(=O)Nc2ccccc2)c2cccc(OCCN3CCOCC3)c2)C1 (racemic)

>  <inhibition (%)>
50

$$$$
>  <Compound>
COc1cccc(C(=O)NC2CCCC(CN(C(=O)Nc3ccccc3)c3cccc(OCCN4CCOCC4)c3)C2)c1 (racemic)

>  <inhibition (%)>
26

$$$$
>  <Compound>
O=C(Nc1ccccc1)N(CC1CCCC(NCc2cccc(Cl)c2)C1)c1cccc(OCCN2CCOCC2)c1 (racemic)

>  <inhibition (%)>
28

$$$$
>  <Compound>
O=C(Nc1ccccc1)N(CC1CCCC(N(Cc2cccc(Cl)c2)C(=O)C(Cl)(Cl)Cl)C1)c1cccc(OCCN2CCOCC2)c1 (racemic)

>  <inhibition (%)>
23

$$$$
>  <Compound>
O=C(Nc1ccccc1)N(CC1CCCC(N(Cc2ccccc2)C(=O)c2ccc(-c3ccccc3)cc2)C1)c1cccc(OCCN2CCOCC2)c1 (racemic)

>  <inhibition (%)>
3

$$$$
>  <Compound>
O=C(Nc1ccccc1)N(c1cccc(OCCN2CCOCC2)c1)C1CCC(CN(Cc2cccc(Cl)c2)C(=O)C(Cl)(Cl)Cl)C1 (stereo not drawn)

>  <inhibition (%)>
4

$$$$
